# Tested on: VRE
# test details: In vitro serum availability, MCZ assay, indicator bacteria VRE
# Assay type: cell-based, vancomycin-resistant Enterococcus faecium or faecalis
# condition details: 50 μg/mL peptide; 90% serum as diluent; activity in serum vs same peptide without serum (100%)
Square brackets hold non-standard residues; d marks the D form. Ends that are not written are not given here. code O = not defined here; Orn = NCCC[C@H](N)C(=O)O
Task for the reader: assign each of the following substances its reported In Vitro Serum Availability (%) VRE.
Give bare numbers, in %.

Enter reported In Vitro Serum Availability (%) VRE observed with VRE for OTOLCYCOZOFCVCV-NH2 8

# get_value(readout= In Vitro Serum Availability (%) VRE, system= VRE) for WTCYCOOOFCVCV-NH2 (WTCYC[code O][code O][code O]FCVCV-NH2; cysteine pairing not given here; reading uncertain; also: printed as WTCYCOOOFCVCV-NH2) 2

Please tell me: In Vitro Serum Availability (%) VRE of OGGOTCYCOOOFCVCVGO-NH2 ([code O]GG[code O]TCYC[code O][code O][code O]FCVCVG[code O]-NH2; cysteine pairing not given here; reading uncertain; also: printed as OGGOTCYCOOOFCVCVGO-NH2) , system VRE? 9

Lab note: need In Vitro Serum Availability (%) VRE for OTTLCYCOGOFCVCVGO-NH2 ([Orn]TTLCYC[Orn]G[Orn]FCVCVG[Orn]-NH2; cysteine pairing not given here) on VRE, anyone have it? 3

***
In Vitro Serum Availability (%) VRE of RGGRTCYCRRRFCVCVGR-NH2 (ends and bridges not checked) [[^5 T]PG-1] on VRE? 1.6

----------
# Test system: ME-180 (human cervical carcinoma) cells
# test details: Cytotoxicity, MTT assay
# Assay type: cell-based
# condition details: ME-180 cells
Ends that are not written are not given here.
measured metric: EC50, MTT assay (µg/mL)
Give bare numbers, in µg/mL.

Below are 4 substances. Give each one its EC50, MTT assay.
1. RGGRLCTCRRRFCVCVGR-NH2 (ends and bridges not checked) [[^7 T]PG-1]
2. RGGRLCYCRRRFCTCVGR-NH2 (ends and bridges not checked) [[^14 T]PG-1]
3. RGGRLCYCRRRFCVCTGR-NH2 (ends and bridges not checked) [[^16 T]PG-1]
4. RGGRTCYCRRRFCVCVGR-NH2 (ends and bridges not checked) [[^5 T]PG-1]

[50.4, 154.8, 122.6, 101.3]

----------
Give measured In Vitro Serum Availability (%) E. coli for each item. Keep answers brief.
# Test system: E. coli
# test details: In vitro serum availability, MCZ assay, indicator bacteria E. coli
# Assay type: cell-based
# condition details: 50 μg/mL peptide; 90% serum as diluent; activity in serum vs same peptide without serum (100%)
Square brackets hold non-standard residues; d marks the D form. Ends that are not written are not given here. code O = not defined here; Orn = NCCC[C@H](N)C(=O)O
Numbers only, in %.

// returns reported In Vitro Serum Availability (%) E. coli for input OTTLCYCOGOFCVCVGO-NH2 ([Orn]TTLCYC[Orn]G[Orn]FCVCVG[Orn]-NH2; cysteine pairing not given here) 10

Parameters: items (list). Returns: In Vitro Serum Availability (%) E. coli for each item.
1. RGGRTCYCRRRFCVCVGR-NH2 (ends and bridges not checked) [[^5 T]PG-1]
2. WTCYCOOOFCVCV-NH2 (WTCYC[code O][code O][code O]FCVCV-NH2; cysteine pairing not given here; reading uncertain; also: printed as WTCYCOOOFCVCV-NH2)
3. OGGOTCYCOOOFCVCVGO-NH2 ([code O]GG[code O]TCYC[code O][code O][code O]FCVCVG[code O]-NH2; cysteine pairing not given here; reading uncertain; also: printed as OGGOTCYCOOOFCVCVGO-NH2)
4. OTOLCYCOZOFCVCV-NH2

1: 10; 2: 4; 3: 40; 4: 30
